# Tested on: Bacteroides stercoris
# ASSAY_SUMMARY: growth AUC relative to DMSO control (median of replicates) (fraction); higher = more growth (less inhibition), active = hit call of the paper;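 active = AUC reduced over 20% with Padj below 0.05 in at least 2 of 3 replicates; inactive = otherwise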
# CONDITION_INFO: 20 µM; 24 h
Write down the outcome that applies. Available outcomes: 1.0 for active, 0.0 for inactive

Solved entries:
COMPOUND: O=c1oc2ccccc2c(O)c1C(CC(O)c1ccc(-c2ccc(Br)cc2)cc1)c1ccccc1 (centres undefined)
CLASSIFICATION: 1.0

COMPOUND: Cc1cc(Cl)ccc1N=CN(C)C
CLASSIFICATION: 0.0

COMPOUND: COC(=O)NS(=O)(=O)c1ccc(N)cc1
CLASSIFICATION: 0.0

COMPOUND: COCC(=O)N(c1c(C)cccc1C)N1CCOC1=O
CLASSIFICATION: 0.0

COMPOUND: O=C(OC1CCCCC1)c1ccccc1C(=O)OC1CCCCC1
CLASSIFICATION: 0.0

COMPOUND: CNc1nc(C)c(C)c(OC(=O)N(C)C)n1
CLASSIFICATION: 0.0

What classification did `Clc1ccc(C(c2ccc(Cl)cc2)C(Cl)(Cl)Cl)cc1` end up with in this test?
1.0

What classification did `O=C(Cc1ccccc1)N/C(=N\OCC1CC1)c1c(C(F)(F)F)ccc(F)c1F` end up with in this test?
0.0

What classification did `Cc1ccn2nc(S(=O)(=O)Nc3c(F)cccc3F)nc2n1` end up with in this test?
0.0

What classification did CCOC1Oc2ccc(OS(C)(=O)=O)cc2C1(C)C (centres undefined) end up with in this test?
0.0

What classification did `CNC(=O)Oc1cc(C)cc(C(C)C)c1` end up with in this test?
0.0

What classification did `CN1CSC(=S)N(C)C1` end up with in this test?
0.0

What classification did `CCN(Cc1ccc(Cl)nc1)/C(=C/[N+](=O)[O-])NC` end up with in this test?
0.0

What classification did `O=C(NC(=O)c1ccccc1Cl)Nc1ccc(OC(F)(F)F)cc1` end up with in this test?
0.0

What classification did CCOP(=O)(N=C1SCC(C)S1)OCC (centres undefined) end up with in this test?
0.0

What classification did `CCCCCCCCCCCCC1=C(OC(C)=O)C(=O)c2ccccc2C1=O` end up with in this test?
0.0
